molecular target: human MASP-2cf (Homo sapiens, UniProt O00187); construct: catalytic enzyme fragments containing the three C-terminal domains: CCP1-CCP2-SP; made in house; test: Equilibrium inhibition constant (KI) on human MASP-2 catalytic fragment, Z-L-Lys-SBzl substrate; assay type: biochemical
Bridges are numbered along the chain shown (N, C = ends). Where no end group is shown, it is not given here.
readout: pKi
The read-out pKi is expressed as -log10 of concentration in moles per litre.

-- ask Fill in: pKi of KPDFCFLENDPGPCRALKRRYFYNNQTKQCERFYYGGCFGNMNNFETLEECKNICEDG (disulfide 5-55, 14-38, 30-51) [EVO25] is ___
-- reply 9.77

----------
biological target: human MASP-2cf (Homo sapiens); construct: catalytic enzyme fragments containing the three C-terminal domains: CCP1-CCP2-SP; made in house; test: Equilibrium inhibition constant (KI) on human MASP-2 catalytic fragment, Z-L-Lys-SBzl substrate; format: biochemical; settings: 5 nM enzyme; read-out: KI values human MASP-2cf
Bridges are numbered along the chain shown (N, C = ends). Where no end group is shown, it is not given here.
readout: Ki (nM)
Quick reminder: number only, in nM, skip the unit.

-- ask I have this sequence here, KPDFCFLENDPGPCRAAAVRYFYNNQTKQCERFYYGGCLGNMNNFVTLEECKNICEDG (disulfide 5-55, 14-38, 30-51) [EVO223] , and I need its recorded Ki.
-- reply 0.17
